The values you see were collected from PubChem BioAssay (NCI).

Entries and their measured TGI follow.
Test system: HL-60(TB) leukemia
Test name: NCI tumour cell line growth inhibition, 48 h

Compound | TGI
CC(=O)[CH-]C(=O)c1ccccc1.CC(=O)[CH-]C(=O)c1ccccc1.Cl.[O-]CCc1ccccn1.[O-]CCc1ccccn1.[Ti+4] | 93.5 µM
CCOC(=O)c1c(NS(=O)(=O)c2ccccc2)sc2c1CCCC2 | > 100 µM
O=C(Nc1c[nH]c(=O)[nH]c1=O)Oc1ccccc1 | 33.5 µM
COC(OC)c1cccc2c1C(=O)CCC1(CC2)OCCCCO1 | > 100 µM

Query block: Which value of TGI has been reported for C#Cc1c(C)c(/C=C/C(C)=C\C(=O)OC)n(C)c1C in the records?
Result block: > 100 µM

Query block: TGI lookup needed for C#C[C@]1(O)CC[C@H]2[C@@H]3CCC4=C/C(=N/OC(=O)c5cccc6cc7ccccc7nc56)CC[C@@H]4[C@H]3CC[C@@]21CC , thanks.
Result block: > 100 µM

Query block: Bench note: what TGI did COc1cc(O)c(C(=O)C2Cc3ccccc32)c(OC)c1 (stereo unspecified) show?
Result block: 39.7 µM

Query block: Find the recorded TGI belonging to COc1cc(/C=N\Nc2ccccc2)ccc1OC(=O)c1ccccc1 and report it.
Result block: > 72.1 µM

Query block: # lookup: TGI of COc1cc2c(c(O)c1OC)C(O)C1CCC(=O)N1C2c1ccc2c(c1)OCO2 (stereo unspecified)
Result block: > 100 µM
